Reference source for all entries: ChEMBL document CHEMBL4219050

assaySummary: Binding affinity to P-gp (unknown origin)
Set-up: species or system Homo sapiens
pEC50: −log10 of the molar value.
Each entry below lists one item and its recorded pEC50 value.

| smiles | quantityKind | measuredValue |
| --- | --- | --- |
| O[C@@H](COc1cccc2ncccc12)CN1CCN([C@@H]2c3ccccc3[C@@H]3[C@H](c4ccccc42)C3(F)F)CC1 | pEC50 | > 7.00 |

Asked: For COc1cc2c(cc1OC)CN(CCc1ccc(NC(=O)c3cc(OC)c(OC)cc3NC(=O)c3cnc4ccccc4c3)cc1)CC2 , what is its reported pEC50?
Given back: > 7.00

====

Test system: HCT-116
assaySummary: Cytotoxicity against human HCT116 cells
Assay type: functional, cell-based
quantityKind: IC50 (nM)
Number only, in nM; omit the unit.

| molecule | uom | IC50 |
| --- | --- | --- |
| C/C(=C\c1csc(C)n1)[C@@H]1C[C@@H]2O[C@]2(C)CCC[C@H](C)[C@H](O)[C@@H](C)C(=O)C(C)(C)[C@@H](O)CC(=O)N1 [IXABEPILONE] | nM | 2.6 |

Asked: For C/C(=C\c1csc(C)n1)[C@@H]1C/C=C\C/C=C\[C@H](C)[C@H](O)[C@@H](C)C(=O)C(C)(C)[C@@H](O)CC(=O)O1 , what is its reported IC50?
Given back: 0.41
